Parameter: GRAN. Scope: all listed entries.
experiment: In vivo toxicological study in rats: haematology; design: species or system rats of the Wistar strain; settings: female, 30 mg/kg oral daily 7 d

COc1ccccc1NC(=O)N1CCc2c(sc(NC(=O)c3cccc4ccccc34)c2C#N)C1	1.00 10^9/l

# input Which measured GRAN value corresponds to `N#Cc1c(NC(=O)c2cccc3ccccc23)sc2c1CCN(C(=O)Nc1ccccc1OC(F)(F)F)C2` ?
# output 0.80 10^9/l

# input Also `N#Cc1c(NC(=O)c2cccc3ccccc23)sc2c1CCN(CC(=O)Nc1cccc(Br)c1)C2` ?
# output 0.77 10^9/l

# input Also `COc1ccc(C(=O)Nc2sc3c(c2C#N)CCCCC3)cc1OC` ?
# output 0.97 10^9/l

Entry source: patent US20260234159A1
